Tested on: Hepatotoxicity
protocol-text: FDA HLAED, alkaline phosphatase increase
run-conditions: human
metric: Alkaline Phosphatase Increase - Number of Reports

Use the examples below as a reference point.
Reported Alkaline Phosphatase Increase - Number of Reports of Cn1cnc([N+](=O)[O-])c1Sc1ncnc2nc[nH]c12 : >= 4

Reported Alkaline Phosphatase Increase - Number of Reports of CO/N=C(\C(=O)N[C@@H]1C(=O)N2C(C(=O)[O-])=C(C[N+]3(C)CCCC3)CS[C@H]12)c1csc(N)n1 : < 4

Reported Alkaline Phosphatase Increase - Number of Reports of NC(=O)OCC(COC(N)=O)c1ccccc1 [FELBAMATE] : >= 4

Reported Alkaline Phosphatase Increase - Number of Reports of CC(=O)O[C@@]12CO[C@@H]1C[C@H](O)[C@@]1(C)C(=O)[C@H](O)C3=C(C)[C@@H](OC(=O)[C@H](O)[C@@H](NC(=O)OC(C)(C)C)c4ccccc4)C[C@@](O)([C@@H](OC(=O)c4ccccc4)[C@H]21)C3(C)C.O.O.O : < 4

Reported Alkaline Phosphatase Increase - Number of Reports of CC1COc2c(N3CCN(C)CC3)c(F)cc3c(=O)c(C(=O)O)cn1c23 (configuration not stated) : >= 4

Reported Alkaline Phosphatase Increase - Number of Reports of CN1CCN2c3ncccc3Cc3ccccc3C2C1 (configuration not stated) : < 4

Consider the record given below.
Reported Alkaline Phosphatase Increase - Number of Reports of C[C@H]1[C@H](NC(=O)/C(=N\OC(C)(C)C(=O)O)c2csc(N)n2)C(=O)N1S(=O)(=O)O : >= 4
